target: peripheral opioid receptors (Mus musculus); construct: Mice maintained (6 mice/cage) on 0.01M saccharin water with 1 g/1 morphine sulfate; from tissue; host or cells: living morphine-maintained mice (in vivo test; endogenous receptor); experiment: precipitated diarrhea in morphine-maintained mice (peripheral opioid activity) and comparison with the writhing test; type: in vivo; settings: higher ratio = greater relative antagonism of peripheral opioid receptors
Where a name gives a salt, the structure may show the parent alone.
Output MET for Ratio (AD50 mouse writhing test / ED50 mouse diarrhea test) not less than 70; output NOT MET otherwise.

Answered examples (5):
compound="C[C@H]1CN(CC(Cc2ccccc2)C(=O)NCCN(C)C)CC[C@@]1(C)c1cccc(O)c1 (relative stereo) [Example 69, dihydrochloride]" qualitative_label="NOT MET"
compound="CNC(=O)CNC(=O)C(CCN1CC[C@@](C)(c2cccc(O)c2)[C@@H](C)C1)C1CCCCC1 (relative stereo) [Example 21, hydrochloride]" qualitative_label=MET
compound="CC(=O)OC(C)OC(=O)CNC(=O)C(Cc1ccccc1)CN1CC[C@@](C)(c2cccc(O)c2)[C@@H](C)C1 (relative stereo)" qualitative_label=MET
compound="CCOC(=O)CNC(=O)C(CCN1CC[C@@](C)(c2cccc(O)c2)[C@@H](C)C1)c1ccccc1 (relative stereo) [Example 11, monohydrochloride]" qualitative_label=MET
compound="CCOC(=O)CCCNC(=O)C(Cc1ccccc1)CN1CC[C@@](C)(c2cccc(O)c2)[C@@H](C)C1 (stereo partly drawn) [Example 61, monohydrochloride monohydrate]" qualitative_label="NOT MET"

Let us examine a further case.
Q) Determine whether this compound has Ratio (AD50 mouse writhing test / ED50 mouse diarrhea test) no lower than 70: CC(C)COC(=O)CNC(=O)C(Cc1ccccc1)CN1CC[C@@](C)(c2cccc(O)c2)[C@@H](C)C1 (stereo partly drawn) [Example 54, monohydrochloride]
A) MET

----------
molecular target: peripheral opioid receptors (Mus musculus, UniProt P42866); construct: Mice maintained (6 mice/cage) on 0.01M saccharin water with 1 g/1 morphine sulfate; from tissue; host or cells: living morphine-maintained mice (in vivo test; endogenous receptor); assay: precipitated diarrhea in morphine-maintained mice (peripheral opioid activity) and comparison with the writhing test; assay type: in vivo; details: mouse, 0.5 h, morphine-maintained mice; antagonist subcutaneous or oral; 30 min observation
Sequence (P42866 whole entry): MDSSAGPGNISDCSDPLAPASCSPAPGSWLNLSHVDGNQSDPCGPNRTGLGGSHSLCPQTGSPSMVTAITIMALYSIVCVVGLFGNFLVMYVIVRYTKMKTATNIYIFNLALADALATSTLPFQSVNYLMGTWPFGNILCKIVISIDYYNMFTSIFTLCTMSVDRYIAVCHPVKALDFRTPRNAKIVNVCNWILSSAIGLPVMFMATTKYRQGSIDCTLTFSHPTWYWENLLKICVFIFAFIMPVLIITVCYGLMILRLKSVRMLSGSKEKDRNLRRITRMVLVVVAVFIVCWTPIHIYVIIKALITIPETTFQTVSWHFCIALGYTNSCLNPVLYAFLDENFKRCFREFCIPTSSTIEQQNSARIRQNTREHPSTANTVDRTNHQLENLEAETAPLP
Counter-ions that a name gives are not always drawn.
Mark rule met for ED50 under 0.1 mg/kg, rule not met if at or over.

molecule="CNC(=O)CCCNC(=O)C(CC1CCCCC1)CN1CC[C@@](C)(c2cccc(O)c2)[C@@H](C)C1 (stereo partly drawn) [Example 41, monohydrochloride]" qualitative_label="rule not met"
molecule="C[C@H]1CN(CC(CC2CCCCC2)C(=O)NCCC(=O)OCc2ccccc2)CC[C@@]1(C)c1cccc(O)c1 (relative stereo) [Example 34, monohydrochloride]" qualitative_label="rule not met"
molecule="CCOC(=O)C(CC1CCCCC1)CN1CC[C@@](C)(c2cccc(O)c2)[C@@H](C)C1 (relative stereo) [Example 5A, hydrochloride]" qualitative_label="rule met"
molecule="COc1cccc([C@]2(C)CCN(CC(Cc3ccccc3)C(=O)O)C[C@@H]2C)c1 (single isomer, unassigned)" qualitative_label="rule not met"
molecule="C[C@H]1CN(CC(CC2CCCCC2)C(=O)NCC(N)=O)CC[C@@]1(C)c1cccc(O)c1 (relative stereo) [Example 33, monohydrochloride]" qualitative_label="rule not met"

Turning to the following molecule.
Q) Record C[C@H]1CN(CC(Cc2ccccc2)C(=O)NCC(=O)N(C)C)CC[C@@]1(C)c1cccc(O)c1 (stereo partly drawn) [Example 47, monohydrochloride monohydrate] : is its ED50 strictly below 0.1 mg/kg?
A) rule not met

----------
target: peripheral opioid receptors (Mus musculus); construct: Mice maintained (6 mice/cage) on 0.01M saccharin water with 1 g/1 morphine sulfate; from tissue; host or cells: living morphine-maintained mice (in vivo test; endogenous receptor); assay: precipitated diarrhea in morphine-maintained mice (peripheral opioid activity) and comparison with the writhing test; type: in vivo; details: mouse, 0.5 h, morphine-maintained mice; antagonist subcutaneous or oral; 30 min observation
Counter-ions that a name gives are not always drawn.
quantity name: ED50 (mg/kg)
Give bare numbers, in mg/kg.

compound="C[C@H]1CN(CC(Cc2ccccc2)C(=O)NCC(=O)OCc2ccccc2)CC[C@@]1(C)c1cccc(O)c1 (stereo partly drawn) [Example 55, hydrochloride]" reported=0.12
compound="CCOC(=O)CCCNC(=O)C(CC1CCCCC1)CN1CC[C@@](C)(c2cccc(O)c2)[C@@H](C)C1 (stereo partly drawn) [Example 39, monohydrochloride]" reported=0.66

Please supply ED50 for each of the following items, keeping them in order.
1. CNC(=O)CCCNC(=O)C(CCN1CC[C@@](C)(c2cccc(O)c2)[C@@H](C)C1)C1CCCCC1 (relative stereo) [Example 24, monohydrochloride monohydrate]
2. C[C@H]1CN(CC(CC2CCCCC2)C(=O)O)CC[C@@]1(C)c1cccc(O)c1 (relative stereo) [Example 5B, monohydrate]
3. C[C@H]1CN(CC(Cc2ccccc2)C(=O)O)CC[C@@]1(C)c1cccc(O)c1 (relative stereo) [Example 4B, monohydrate]
4. CNC(=O)CNC(=O)C(CCN1CC[C@@](C)(c2cccc(O)c2)[C@@H](C)C1)c1ccccc1 (relative stereo) [Example 13, monohydrochloride]

A)
1. 0.1
2. 0.24
3. 0.011
4. 0.32

----------
molecular target: mu receptor (Rattus norvegicus, UniProt P33535); construct: rat whole brain minus cerebellum for mu was homogenized; from tissue; host or cells: brain of male Sprague Dawley rats, whole brain minus cerebellum, homogenate fraction; assay: opioid receptor binding assay, [3H] NAL (tritiated naloxone), mu receptor; design: species or system rat (Male Sprague Dawley), brain minus cerebellum; settings: 20 min, read-out: % displacement at 100 nM
Sequence (P33535 whole entry): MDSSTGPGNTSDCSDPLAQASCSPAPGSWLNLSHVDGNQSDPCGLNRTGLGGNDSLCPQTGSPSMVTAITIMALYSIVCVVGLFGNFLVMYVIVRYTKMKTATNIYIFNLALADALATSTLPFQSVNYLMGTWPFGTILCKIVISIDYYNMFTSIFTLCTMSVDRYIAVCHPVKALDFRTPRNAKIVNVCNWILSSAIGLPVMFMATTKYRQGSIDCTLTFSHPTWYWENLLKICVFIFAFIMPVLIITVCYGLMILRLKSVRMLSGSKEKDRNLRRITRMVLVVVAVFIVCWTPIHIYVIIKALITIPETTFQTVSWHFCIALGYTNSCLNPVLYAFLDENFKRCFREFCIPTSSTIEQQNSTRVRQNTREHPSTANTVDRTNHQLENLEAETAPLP
Where a name gives a salt, the structure may show the parent alone.
quantity name: inhibition at 0.1 µM (%)
One number for each entry, in %.

compound="CCOC(=O)CCCNC(=O)C(CC1CCCCC1)CN1CC[C@@](C)(c2cccc(O)c2)[C@@H](C)C1 (stereo partly shown) [Example 39, monohydrochloride]" reported=98
compound="CNC(=O)CCCNC(=O)C(Cc1ccccc1)CN1CC[C@@](C)(c2cccc(O)c2)[C@@H](C)C1 (stereo partly shown) [Example 62, monohydrochloride monohydrate]" reported=98
compound="C[C@H]1CN(CC(CC2CCCCC2)C(=O)NCCC(=O)OCc2ccccc2)CC[C@@]1(C)c1cccc(O)c1 (relative stereo) [Example 34, monohydrochloride]" reported=97
compound="CCOC(=O)C(Cc1ccccc1)CN1CC[C@@](C)(c2cccc(O)c2)[C@@H](C)C1 (relative stereo) [Example 4A, hydrochloride]" reported=98
compound="C[C@H]1CN(CC(Cc2ccccc2)C(=O)NCC(=O)OCc2ccccc2)CC[C@@]1(C)c1cccc(O)c1 (stereo partly shown) [Example 55, hydrochloride]" reported=97
compound="CCNC(=O)CCNC(=O)C(CC1CCCCC1)CN1CC[C@@](C)(c2cccc(O)c2)[C@@H](C)C1 (stereo partly shown) [Example 37, monohydrochloride]" reported=97
compound="C[C@H]1CN(CC(Cc2ccccc2)C(=O)NCCC(=O)OCc2ccccc2)CC[C@@]1(C)c1cccc(O)c1 (stereo partly shown) [Example 56, hydrochloride]" reported=98
compound="CCNC(=O)CCCNC(=O)C(CC1CCCCC1)CN1CC[C@@](C)(c2cccc(O)c2)[C@@H](C)C1 (stereo partly shown) [Example 42, monohydrate hydrochloride]" reported=97
compound="C[C@H]1CN(CC(Cc2ccccc2)C(=O)O)CC[C@@]1(C)c1cccc(O)c1 (relative stereo) [Example 4B, monohydrate]" reported=97
compound="C[C@H]1CN(CCC(C(=O)NCC(=O)O)c2ccccc2)CC[C@@]1(C)c1cccc(O)c1 (relative stereo) [Example 12, monohydrate]" reported=94

# batch: return inhibition at 0.1 µM for each of the 3 compounds below
1. C[C@H]1CN(CC(Cc2ccccc2)C(=O)NCCC(=O)O)CC[C@@]1(C)c1cccc(O)c1 (stereo partly shown) [Example 57, monohydrate]
2. COC(=O)COC(=O)CNC(=O)C(Cc1ccccc1)CN1CC[C@@](C)(c2cccc(O)c2)[C@@H](C)C1 (relative stereo)
3. CCNC(=O)CNC(=O)C(Cc1ccccc1)CN1CC[C@@](C)(c2cccc(O)c2)[C@@H](C)C1 (stereo partly shown)

A)
1. 98
2. 98
3. 98

----------
Target: opioid receptor (Mus musculus, UniProt P42866)
Construct: Five CF-1 male mice (Charles River, Portage, Mich.); from tissue; host or cells: living CF-1 male mice (in vivo test; endogenous receptor)
Test: mouse writhing analgesis test: block of morphine-induced analgesia
Assay type: in vivo, CF-1 male mice
Set-up: unit not given here
Settings: dose of antagonist that reduced the inhibition of writhing produced by 1.25 mg/kg morphine sulfate to 50%; subcutaneous, 20 min before acetic acid
Experimental: In order to determine in vivo opioid receptor antagonism, the mouse writhing analgesis test was used. Test compounds were measured for their ability to block morphine-induced analgesia. Five CF-1 male mice (Charles River, Portage, Mich.), weighing approximately 20 g after being fasted overnight, were observed simultaneously for the writhing response. […] The percent inhibition of writhing was calculated from the average number of writhes in the control (non-drug) group. […]
Where a name gives a salt, the structure may show the parent alone.
quantity name: AD50
Answers are plain numbers.

Some solved entries appear below for comparison.
compound="CCOC(=O)C(CC1CCCCC1)CN1CC[C@@](C)(c2cccc(O)c2)[C@@H](C)C1 (relative stereo) [Example 5A, hydrochloride]" target_desc="opioid receptor (Mus musculus, UniProt P42866)" quantity_name=AD50 reported=1.2
compound="CC(C)CNC(=O)CNC(=O)C(Cc1ccccc1)CN1CC[C@@](C)(c2cccc(O)c2)[C@@H](C)C1 (some centres unmarked) [Example 50, monohydrate hydrochloride]" target_desc="opioid receptor (Mus musculus, UniProt P42866)" quantity_name=AD50 reported=14.3
compound="CNC(=O)CCNC(=O)C(Cc1ccccc1)CN1CC[C@@](C)(c2cccc(O)c2)[C@@H](C)C1 (some centres unmarked) [Example 59, monohydrochloride]" target_desc="opioid receptor (Mus musculus, UniProt P42866)" quantity_name=AD50 reported=5.9
compound="CCNC(=O)CCCNC(=O)C(CC1CCCCC1)CN1CC[C@@](C)(c2cccc(O)c2)[C@@H](C)C1 (some centres unmarked) [Example 42, monohydrate hydrochloride]" target_desc="opioid receptor (Mus musculus, UniProt P42866)" quantity_name=AD50 reported=2.1
compound="CCOC(=O)C(Cc1ccccc1)CN1CC[C@@](C)(c2cccc(O)c2)[C@@H](C)C1 (relative stereo) [Example 4A, hydrochloride]" target_desc="opioid receptor (Mus musculus, UniProt P42866)" quantity_name=AD50 reported=1.08

Quick batch: AD50 for everything below.
1. C[C@H]1CN(CCC(C(=O)O)C2CCCCC2)CC[C@@]1(C)c1cccc(O)c1 (relative stereo) [Example 9B, hydrochloride]
2. C[C@H]1CN(CC(Cc2ccccc2)C(=O)N(C)CC(=O)O)CC[C@@]1(C)c1cccc(O)c1 (relative stereo) [Example 66, monohydrate]
3. C[C@H]1CN(CC(Cc2ccccc2)C(=O)NCC(N)=O)CC[C@@]1(C)c1cccc(O)c1 (some centres unmarked) [Example 46, monohydrochloride monohydrate]
4. C[C@H]1CN(CC(CC2CCCCC2)C(=O)NCCCC(N)=O)CC[C@@]1(C)c1cccc(O)c1 (some centres unmarked) [Example 40, hydrochloride]
5. CCNC(=O)CCNC(=O)C(CC1CCCCC1)CN1CC[C@@](C)(c2cccc(O)c2)[C@@H](C)C1 (some centres unmarked) [Example 37, monohydrochloride]
6. C[C@H]1CN(CCC(C(=O)NCC(N)=O)C2CCCCC2)CC[C@@]1(C)c1cccc(O)c1 (relative stereo) [Example 20, hydrochloride monohydrate]

A)
1.50
14.0
40
4.5
3.9
32.1

GET /value?item= C[C@H]1CN(CC(Cc2ccccc2)C(=O)NCC(=O)O)CC[C@@]1(C)c1cccc(O)c1 (single isomer, unassigned; (+)) [Example 97E, monohydrate] &field=AD50 returns 8.9
